Reference for the values: ChEMBL document CHEMBL1138335

Biological target: Transient receptor potential cation channel subfamily V member 1 (Homo sapiens)
Assay: Antagonist activity at human recombinant TRPV1 receptor expressed in HEK293 cells assessed as inhibition of capsaicin-induced intracellular calcium elevation
measurement.kind: IC50

Examples with answers:
{"compound": "O=C(NCCc1c[nH]c2ccc(O)cc12)Oc1ccc(C(F)(F)F)cc1", "IC50": "> 10 µM"}
{"compound": "O=C(NCCc1c[nH]c2ccc(O)cc12)Oc1ccc(I)cc1", "IC50": "> 10 µM"}
{"compound": "O=C(NCCc1ccccc1)NCCc1c[nH]c2ccc(O)cc12", "IC50": "> 10 µM"}

### Prompt Output IC50 of CCCCC/C=C\C/C=C\C/C=C\CCCCC(=O)NCCc1c[nH]c2ccc(O)cc12
### Response 0.95 µM

### Prompt Give a short answer stating reported IC50 for O=C(NCCc1c[nH]c2ccc(O)cc12)Oc1ccc(Cl)cc1 .
### Response > 10 µM

### Prompt Consider the compound CCCCCCCCCCC(=O)NCCc1c[nH]c2ccc(O)cc12 and give its recorded IC50.
### Response 0.76 µM

### Prompt Item O=C(NCCc1c[nH]c2ccc(O)cc12)Oc1ccc2ccccc2c1 : provide IC50
### Response > 10 µM

====

# pIC50 annotations
Target: Fatty-acid amide hydrolase 1 (Rattus norvegicus)
Sequence (P97612 whole entry): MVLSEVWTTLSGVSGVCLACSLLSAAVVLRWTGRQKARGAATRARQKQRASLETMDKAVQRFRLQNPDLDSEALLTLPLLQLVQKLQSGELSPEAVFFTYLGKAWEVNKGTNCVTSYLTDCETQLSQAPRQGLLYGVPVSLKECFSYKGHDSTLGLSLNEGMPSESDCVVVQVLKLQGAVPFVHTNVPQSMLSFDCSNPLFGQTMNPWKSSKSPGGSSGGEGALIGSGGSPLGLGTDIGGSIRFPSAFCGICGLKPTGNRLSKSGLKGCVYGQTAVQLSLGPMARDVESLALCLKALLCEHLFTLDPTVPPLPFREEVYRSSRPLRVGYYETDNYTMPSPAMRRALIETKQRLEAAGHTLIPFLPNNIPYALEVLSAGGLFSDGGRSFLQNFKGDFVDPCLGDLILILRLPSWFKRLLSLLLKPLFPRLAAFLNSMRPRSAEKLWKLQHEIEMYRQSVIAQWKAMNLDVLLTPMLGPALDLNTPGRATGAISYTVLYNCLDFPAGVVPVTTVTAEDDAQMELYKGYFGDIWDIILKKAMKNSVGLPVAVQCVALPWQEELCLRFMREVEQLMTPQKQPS
Test: Inhibition of rat brain FAAH assessed by measuring [14C]anandamide hydrolysis after 30 mins
pIC50: −log10 of the molar value.

{"structure.notation": "O=C(NCCc1ccc(-c2ccccc2)cc1)NCCc1c[nH]c2ccc(O)cc12", "pIC50": "< 4.30"}
{"structure.notation": "CC(C)(C)c1ccc(OC(=O)NCCc2c[nH]c3ccc(O)cc23)cc1", "pIC50": "< 5.00"}
{"structure.notation": "O=C(Cc1cccc(-c2ccccc2)c1)NCCc1c[nH]c2ccc(O)cc12", "pIC50": "< 4.30"}

### Prompt Please report pIC50 for the following molecule: CCCCC/C=C\C/C=C\C/C=C\CCCCCOC(=O)NCCc1c[nH]c2ccc(O)cc12
### Response < 4.30

### Prompt Give the value of pIC50 reported for the following: O=C(NCCc1ccc(Oc2ccccc2)cc1)NCCc1c[nH]c2ccc(O)cc12
### Response < 4.30

====

A collection of compounds and their measured IC50
Target: Transient receptor potential cation channel subfamily V member 1 (Homo sapiens, UniProt Q8NER1)
Sequence (Q8NER1 whole entry): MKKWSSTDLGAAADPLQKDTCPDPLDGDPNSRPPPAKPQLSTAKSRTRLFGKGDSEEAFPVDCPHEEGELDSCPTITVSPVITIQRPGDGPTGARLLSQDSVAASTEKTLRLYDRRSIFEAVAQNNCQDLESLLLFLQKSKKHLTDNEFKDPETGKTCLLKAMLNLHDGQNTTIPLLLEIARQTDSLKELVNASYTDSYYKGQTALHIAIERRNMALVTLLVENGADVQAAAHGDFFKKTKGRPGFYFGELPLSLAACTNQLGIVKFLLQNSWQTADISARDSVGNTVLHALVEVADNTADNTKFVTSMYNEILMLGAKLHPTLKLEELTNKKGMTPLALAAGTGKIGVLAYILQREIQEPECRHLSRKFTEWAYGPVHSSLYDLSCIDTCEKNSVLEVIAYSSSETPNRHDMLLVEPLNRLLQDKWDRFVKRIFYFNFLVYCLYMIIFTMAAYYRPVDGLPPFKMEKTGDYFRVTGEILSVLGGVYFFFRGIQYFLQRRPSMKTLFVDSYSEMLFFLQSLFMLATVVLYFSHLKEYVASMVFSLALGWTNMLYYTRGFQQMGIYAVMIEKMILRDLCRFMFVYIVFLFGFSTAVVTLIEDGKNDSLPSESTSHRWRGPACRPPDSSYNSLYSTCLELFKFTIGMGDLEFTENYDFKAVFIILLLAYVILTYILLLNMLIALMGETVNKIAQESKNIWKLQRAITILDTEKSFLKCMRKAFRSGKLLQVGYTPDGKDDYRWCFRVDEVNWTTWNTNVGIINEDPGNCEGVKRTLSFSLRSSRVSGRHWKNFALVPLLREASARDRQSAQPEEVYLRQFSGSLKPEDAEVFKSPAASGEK
Assay: Antagonist activity at human recombinant TRPV1 receptor expressed in HEK293 cells assessed as inhibition of capsaicin-induced intracellular calcium elevation
Give the number; µM is assumed, so skip it.

{"structure.notation": "O=C(CCCCCCCCc1ccccc1)NCCc1c[nH]c2ccc(O)cc12", "measurement.kind": "IC50", "numeric.readout": 0.68}

### Prompt Give the reported IC50 for this compound. O=C(CCCCCCc1ccccc1)NCCc1c[nH]c2ccc(O)cc12
### Response 9.12

====

Target: Transient receptor potential cation channel subfamily V member 1 (Homo sapiens)
Assay: Antagonist activity at human recombinant TRPV1 receptor expressed in HEK293 cells assessed as inhibition of capsaicin-induced intracellular calcium elevation
Assay type: functional, cell-based
measurement.kind: IC50

Use these answered entries as a reference point.
{"compound": "O=C(NCCc1ccc(Cl)cc1)NCCc1c[nH]c2ccc(O)cc12", "measurement.kind": "IC50", "result": "> 10 µM"}
{"compound": "O=C(NCCc1c[nH]c2ccc(O)cc12)Oc1cccc(-c2ccccc2)c1", "measurement.kind": "IC50", "result": "> 10 µM"}

Consider the additional compound presented here.
### Prompt Output IC50 of O=C(CCCCC1CCSS1)NCCc1c[nH]c2ccc(O)cc12 (racemic)
### Response > 10 µM
